target: Tyrosine-protein kinase HCK (Homo sapiens); experiment: Inhibition of recombinant full length N-terminal GST-tagged human HCK expressed in baculovirus expression system at 500 nM using Tyr 02 as substrate incubated for 1 hr in presence of ATP at its Km concentration by Z'-LYTE assay relative to control
endpoint_label: inhibition (%)
I only need the number, in %, no unit after it.

Solved cases below.
OC[C@@H](Nc1ncnc2[nH]c(-c3ccccc3)cc12)c1ccccc1    29
CN(C)CCNCc1ccc(-c2cc3c(N[C@H](CO)c4ccccc4)ncnc3[nH]2)cc1F    36
COc1ccccc1-c1cc2c(N[C@H](CO)c3ccccc3)ncnc2[nH]1    30
OCC[C@@H](Nc1ncnc2[nH]c(-c3ccccc3)cc12)c1ccccc1    31

Moving on to another compound below.
q: Identify the measured inhibition of CCOc1ccccc1-c1cc2c(N[C@H](CO)c3ccccc3)ncnc2[nH]1 for Tyrosine-protein kinase HCK (Homo sapiens).
a: 27

----------
Recorded IC50 values for a group of compounds are listed next.
system: BaF3; experiment: Antiproliferative activity against mouse Ba/F3 cells expressing EGFR-L858R mutant assessed as inhibition of cell growth incubated for 48 hrs by XTT assay; assay type: functional, cell-based; conditions: BaF3, 48 h
I only need the number, in nM, no unit after it.

Solved cases below.
CN(C)CCNCc1ccc(-c2cc3c(N[C@H](CO)c4ccccc4)ncnc3[nH]2)cc1F    142
OCC[C@@H](Nc1ncnc2[nH]c(-c3ccccc3)cc12)c1ccccc1    75
COc1cc(CN(C)CCN(C)C)ccc1-c1cc2c(N[C@H](CO)c3ccccc3)ncnc2[nH]1    77
CCOc1ccccc1-c1cc2c(N[C@H](CO)c3ccccc3)ncnc2[nH]1    98

Moving on to another compound below.
q: Entry CCOc1ccccc1-c1cc2c(N[C@H](CCO)c3ccccc3)ncnc2[nH]1 : reported IC50 = ?
a: 99

----------
biological target: Mast/stem cell growth factor receptor Kit (Homo sapiens) (UniProt P10721); test: Inhibition of human recombinant His-tagged c-Kit cytoplasmic domain (544 to 976 residues) expressed in baculovirus expression system at 500 nM using Tyr 06 as substrate incubated for 1 hr in presence of ATP at its Km concentration by Z'-LYTE assay relative to control
Sequence (P10721 whole entry, the tested form may be a part): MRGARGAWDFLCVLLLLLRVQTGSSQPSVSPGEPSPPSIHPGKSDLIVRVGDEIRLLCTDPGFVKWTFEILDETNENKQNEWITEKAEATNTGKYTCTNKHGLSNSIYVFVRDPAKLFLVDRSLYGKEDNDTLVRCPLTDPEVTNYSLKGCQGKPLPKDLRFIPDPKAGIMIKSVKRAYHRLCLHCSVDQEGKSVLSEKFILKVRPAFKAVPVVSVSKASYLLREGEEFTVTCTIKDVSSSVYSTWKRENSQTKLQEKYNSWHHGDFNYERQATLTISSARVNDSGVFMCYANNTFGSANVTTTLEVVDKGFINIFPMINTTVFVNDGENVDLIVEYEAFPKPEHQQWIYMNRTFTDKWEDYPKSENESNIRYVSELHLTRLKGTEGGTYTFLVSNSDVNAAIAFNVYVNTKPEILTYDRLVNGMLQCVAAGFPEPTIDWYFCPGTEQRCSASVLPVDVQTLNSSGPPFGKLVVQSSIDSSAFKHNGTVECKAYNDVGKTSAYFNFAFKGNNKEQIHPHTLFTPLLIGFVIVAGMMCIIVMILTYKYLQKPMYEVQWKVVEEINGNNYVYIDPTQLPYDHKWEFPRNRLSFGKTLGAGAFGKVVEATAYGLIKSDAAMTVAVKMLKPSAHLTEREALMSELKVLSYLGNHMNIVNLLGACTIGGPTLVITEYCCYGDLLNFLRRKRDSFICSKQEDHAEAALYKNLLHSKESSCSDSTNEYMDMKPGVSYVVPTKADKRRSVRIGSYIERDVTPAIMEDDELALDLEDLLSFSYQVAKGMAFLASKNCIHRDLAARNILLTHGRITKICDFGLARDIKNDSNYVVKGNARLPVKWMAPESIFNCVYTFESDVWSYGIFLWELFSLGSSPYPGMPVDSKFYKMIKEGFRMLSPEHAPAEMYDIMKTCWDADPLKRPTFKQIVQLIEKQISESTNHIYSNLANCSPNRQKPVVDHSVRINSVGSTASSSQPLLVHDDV
endpoint_label: inhibition (%)
I only need the number, in %, no unit after it.

Solved cases below.
COc1ccccc1-c1cc2c(N[C@H](CO)c3ccccc3)ncnc2[nH]1    17
C#Cc1cccc(Nc2ncnc3cc(OCCOC)c(OCCOC)cc23)c1 [ERLOTINIB]    17
CN(C)CCNCc1ccc(-c2cc3c(N[C@H](CO)c4ccccc4)ncnc3[nH]2)cc1F    1

Moving on to another compound below.
q: Entry OC[C@@H](Nc1ncnc2[nH]c(-c3ccccc3)cc12)c1ccccc1 : reported inhibition = ?
a: 20

----------
target: cAMP-dependent protein kinase catalytic subunit alpha (Homo sapiens); experiment: Inhibition of recombinant human His-tagged PRKACA (1 to 351 residues) expressed in Escherichia coli expression system at 500 nM using Ser/Thr 01 as substrate incubated for 1 hr in presence of ATP at its Km concentration by Z'-LYTE assay relative to control
Recorded inhibition values for a group of compounds are listed next.
I only need the number, in %, no unit after it.

q: Entry C#Cc1cccc(Nc2ncnc3cc(OCCOC)c(OCCOC)cc23)c1 : reported inhibition = ?
a: -10

q: And the next one, CCOc1ccccc1-c1cc2c(N[C@H](CO)c3ccccc3)ncnc2[nH]1 ?
a: 6

q: And the next one, OCC[C@@H](Nc1ncnc2[nH]c(-c3ccccc3)cc12)c1ccccc1 ?
a: 7

----------
Recorded inhibition values for a group of molecules are listed next.
molecular target: Receptor tyrosine-protein kinase erbB-4 (Homo sapiens) (UniProt Q15303); assay: Inhibition of recombinant human N-terminal GST-tagged ERBB4 catalytic domain (708 to 993 residues) expressed in baculovirus expression system at 500 nM using Tyr 01 peptide as substrate incubated for 1 hr in presence of ATP at its Km concentration by Z'-LYTE assay relative to control
Sequence (Q15303 whole entry, the tested form may be a part): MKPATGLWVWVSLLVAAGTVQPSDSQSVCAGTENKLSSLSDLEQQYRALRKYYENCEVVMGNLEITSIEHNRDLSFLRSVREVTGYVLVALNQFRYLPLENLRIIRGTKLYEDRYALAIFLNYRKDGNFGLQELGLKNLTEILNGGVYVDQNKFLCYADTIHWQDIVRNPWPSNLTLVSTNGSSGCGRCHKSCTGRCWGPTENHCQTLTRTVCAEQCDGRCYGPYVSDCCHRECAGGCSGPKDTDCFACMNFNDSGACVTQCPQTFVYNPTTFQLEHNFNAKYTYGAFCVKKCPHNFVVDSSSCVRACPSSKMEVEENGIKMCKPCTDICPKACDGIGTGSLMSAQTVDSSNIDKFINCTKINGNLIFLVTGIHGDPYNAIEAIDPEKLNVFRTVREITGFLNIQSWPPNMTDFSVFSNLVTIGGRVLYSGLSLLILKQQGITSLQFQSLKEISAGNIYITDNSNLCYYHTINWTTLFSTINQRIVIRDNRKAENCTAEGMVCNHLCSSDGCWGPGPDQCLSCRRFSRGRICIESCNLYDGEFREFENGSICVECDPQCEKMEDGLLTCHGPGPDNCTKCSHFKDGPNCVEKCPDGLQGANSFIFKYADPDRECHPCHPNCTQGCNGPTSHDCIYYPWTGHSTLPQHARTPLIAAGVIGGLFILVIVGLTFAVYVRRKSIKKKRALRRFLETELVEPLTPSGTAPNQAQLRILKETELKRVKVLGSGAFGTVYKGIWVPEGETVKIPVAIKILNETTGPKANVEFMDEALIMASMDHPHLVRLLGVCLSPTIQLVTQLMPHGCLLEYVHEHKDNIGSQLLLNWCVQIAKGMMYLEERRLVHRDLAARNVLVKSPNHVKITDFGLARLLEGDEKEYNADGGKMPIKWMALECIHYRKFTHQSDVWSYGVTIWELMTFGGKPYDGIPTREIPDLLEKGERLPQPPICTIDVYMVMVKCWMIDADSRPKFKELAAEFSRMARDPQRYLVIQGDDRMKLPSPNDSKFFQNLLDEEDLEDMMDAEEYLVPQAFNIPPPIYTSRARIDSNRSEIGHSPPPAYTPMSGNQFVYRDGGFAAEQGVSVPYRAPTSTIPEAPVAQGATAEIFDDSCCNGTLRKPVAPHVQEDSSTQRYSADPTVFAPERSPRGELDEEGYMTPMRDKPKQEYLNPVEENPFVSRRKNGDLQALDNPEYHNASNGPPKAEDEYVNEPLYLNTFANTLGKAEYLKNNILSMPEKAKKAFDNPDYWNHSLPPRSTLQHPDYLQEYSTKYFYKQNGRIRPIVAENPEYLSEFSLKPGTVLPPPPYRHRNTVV
I only need the number, in %, no unit after it.

Solved cases below.
COc1ccccc1-c1cc2c(N[C@H](CO)c3ccccc3)ncnc2[nH]1    79
CCOc1ccccc1-c1cc2c(N[C@H](CO)c3ccccc3)ncnc2[nH]1    62
OC[C@@H](Nc1ncnc2[nH]c(-c3ccccc3)cc12)c1ccccc1    51
OCC[C@@H](Nc1ncnc2[nH]c(-c3ccccc3)cc12)c1ccccc1    15

q: Entry CN(C)CCNCc1ccc(-c2cc3c(N[C@H](CO)c4ccccc4)ncnc3[nH]2)cc1F : reported inhibition = ?
a: 74

----------
target: Epidermal growth factor receptor (Homo sapiens); details: dose 500.0 nM, time 1.0 hrs
Sequence (P00533 whole entry): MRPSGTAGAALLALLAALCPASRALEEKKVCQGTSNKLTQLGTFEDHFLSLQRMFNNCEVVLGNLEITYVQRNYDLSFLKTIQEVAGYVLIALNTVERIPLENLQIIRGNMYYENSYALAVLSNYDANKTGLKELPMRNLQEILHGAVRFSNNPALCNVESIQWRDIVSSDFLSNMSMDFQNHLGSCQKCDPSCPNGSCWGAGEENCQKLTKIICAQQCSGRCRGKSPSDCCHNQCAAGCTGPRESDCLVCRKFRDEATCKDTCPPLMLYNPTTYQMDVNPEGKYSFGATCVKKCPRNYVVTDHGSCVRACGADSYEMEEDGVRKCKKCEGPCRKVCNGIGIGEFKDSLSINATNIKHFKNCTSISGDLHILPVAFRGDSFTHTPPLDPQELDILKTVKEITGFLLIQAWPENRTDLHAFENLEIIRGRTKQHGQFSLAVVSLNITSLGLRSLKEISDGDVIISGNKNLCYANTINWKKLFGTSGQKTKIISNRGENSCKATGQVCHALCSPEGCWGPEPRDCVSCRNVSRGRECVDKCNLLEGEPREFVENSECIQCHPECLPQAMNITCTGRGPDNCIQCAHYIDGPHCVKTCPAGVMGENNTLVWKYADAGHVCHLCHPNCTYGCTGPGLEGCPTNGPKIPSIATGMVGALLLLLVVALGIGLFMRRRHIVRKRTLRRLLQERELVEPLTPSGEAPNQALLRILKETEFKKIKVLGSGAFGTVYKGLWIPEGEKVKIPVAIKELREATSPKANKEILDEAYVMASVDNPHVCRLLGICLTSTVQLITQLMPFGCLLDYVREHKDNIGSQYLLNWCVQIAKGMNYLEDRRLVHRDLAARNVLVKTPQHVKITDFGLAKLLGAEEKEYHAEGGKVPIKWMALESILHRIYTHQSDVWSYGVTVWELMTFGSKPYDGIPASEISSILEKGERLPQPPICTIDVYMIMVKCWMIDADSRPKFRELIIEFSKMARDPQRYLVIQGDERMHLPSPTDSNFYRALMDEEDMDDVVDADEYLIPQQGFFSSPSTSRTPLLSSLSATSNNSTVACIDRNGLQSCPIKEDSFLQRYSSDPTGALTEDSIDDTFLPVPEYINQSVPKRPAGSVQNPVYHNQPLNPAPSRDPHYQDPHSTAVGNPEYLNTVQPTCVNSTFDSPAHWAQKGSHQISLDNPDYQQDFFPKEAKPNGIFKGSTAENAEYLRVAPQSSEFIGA
Recorded inhibition values for a group of compounds are listed next.
I only need the number, in %, no unit after it.

Solved cases below.
OCC[C@@H](Nc1ncnc2[nH]c(-c3ccccc3)cc12)c1ccccc1    100
CCOc1ccccc1-c1cc2c(N[C@H](CO)c3ccccc3)ncnc2[nH]1    102
COc1ccccc1-c1cc2c(N[C@H](CO)c3ccccc3)ncnc2[nH]1    100
OC[C@@H](Nc1ncnc2[nH]c(-c3ccccc3)cc12)c1ccccc1    96

Moving on to another compound below.
q: Entry CN(C)CCNCc1ccc(-c2cc3c(N[C@H](CO)c4ccccc4)ncnc3[nH]2)cc1F : reported inhibition = ?
a: 104

----------
molecular target: Fibroblast growth factor receptor 1 (Homo sapiens) (UniProt P11362); assay: Inhibition of recombinant human His-tagged FGFR1 (308 to 731 residues) expressed in baculovirus expression system at 500 nM using Tyr 04 peptide as substrate incubated for 1 hr in presence of ATP at its Km concentration by Z'-LYTE assay relative to control
endpoint_label: inhibition (%)
I only need the number, in %, no unit after it.

q: Entry OC[C@@H](Nc1ncnc2[nH]c(-c3ccccc3)cc12)c1ccccc1 : reported inhibition = ?
a: 16

----------
target: Ephrin type-A receptor 1 (Homo sapiens) (UniProt P21709); assay: Inhibition of recombinant human GST-tagged EPHA1 (568 to 976 residues) expressed in baculovirus expression system at 500 nM using Tyr 02 peptide as substrate incubated for 1 hr in presence of ATP at its Km concentration by Z'-LYTE assay relative to control
Sequence (P21709 whole entry, the tested form may be a part): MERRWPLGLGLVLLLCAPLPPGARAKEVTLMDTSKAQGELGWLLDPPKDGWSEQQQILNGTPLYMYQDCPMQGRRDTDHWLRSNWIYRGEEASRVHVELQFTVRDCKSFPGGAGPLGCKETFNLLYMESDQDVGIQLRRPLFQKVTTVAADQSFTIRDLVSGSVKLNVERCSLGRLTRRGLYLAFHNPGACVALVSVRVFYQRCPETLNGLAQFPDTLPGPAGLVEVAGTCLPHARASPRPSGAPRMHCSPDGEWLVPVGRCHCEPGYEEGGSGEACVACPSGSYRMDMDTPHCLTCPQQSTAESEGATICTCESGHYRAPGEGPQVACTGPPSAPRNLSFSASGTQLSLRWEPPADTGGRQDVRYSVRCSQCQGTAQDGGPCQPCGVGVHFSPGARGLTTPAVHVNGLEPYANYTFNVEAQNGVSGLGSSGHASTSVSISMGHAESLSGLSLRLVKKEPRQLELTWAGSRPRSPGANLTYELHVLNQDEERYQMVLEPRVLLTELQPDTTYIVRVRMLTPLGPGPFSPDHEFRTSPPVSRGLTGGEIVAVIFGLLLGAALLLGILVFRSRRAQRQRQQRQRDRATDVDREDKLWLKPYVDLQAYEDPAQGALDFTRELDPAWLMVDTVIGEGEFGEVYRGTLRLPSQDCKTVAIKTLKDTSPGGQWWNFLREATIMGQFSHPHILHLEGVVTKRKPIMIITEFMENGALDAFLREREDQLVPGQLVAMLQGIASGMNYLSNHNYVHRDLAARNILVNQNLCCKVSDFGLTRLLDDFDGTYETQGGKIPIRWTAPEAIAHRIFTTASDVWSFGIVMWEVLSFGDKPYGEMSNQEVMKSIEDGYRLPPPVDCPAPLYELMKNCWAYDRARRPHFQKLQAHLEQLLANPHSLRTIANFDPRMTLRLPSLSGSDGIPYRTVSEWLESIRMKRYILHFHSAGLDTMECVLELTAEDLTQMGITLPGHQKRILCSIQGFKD
Recorded inhibition values for a group of compounds are listed next.
I only need the number, in %, no unit after it.

Solved cases below.
OCC[C@@H](Nc1ncnc2[nH]c(-c3ccccc3)cc12)c1ccccc1    13
CCOc1ccccc1-c1cc2c(N[C@H](CO)c3ccccc3)ncnc2[nH]1    13
OC[C@@H](Nc1ncnc2[nH]c(-c3ccccc3)cc12)c1ccccc1    19
COc1ccccc1-c1cc2c(N[C@H](CO)c3ccccc3)ncnc2[nH]1    15

Moving on to another compound below.
q: Entry CN(C)CCNCc1ccc(-c2cc3c(N[C@H](CO)c4ccccc4)ncnc3[nH]2)cc1F : reported inhibition = ?
a: 48

----------
Recorded inhibition values for a group of compounds are listed next.
biological target: Dual specificity mitogen-activated protein kinase kinase 1 (Homo sapiens) (UniProt Q02750); test: Inhibition of recombinant full length human His-tagged MAP2K1 expressed in baculovirus expression system at 500 nM using Ser/Thr 03 as substrate incubated for 1 hr in presence of ATP at its Km concentration by Z'-LYTE assay relative to control
Sequence (Q02750 whole entry): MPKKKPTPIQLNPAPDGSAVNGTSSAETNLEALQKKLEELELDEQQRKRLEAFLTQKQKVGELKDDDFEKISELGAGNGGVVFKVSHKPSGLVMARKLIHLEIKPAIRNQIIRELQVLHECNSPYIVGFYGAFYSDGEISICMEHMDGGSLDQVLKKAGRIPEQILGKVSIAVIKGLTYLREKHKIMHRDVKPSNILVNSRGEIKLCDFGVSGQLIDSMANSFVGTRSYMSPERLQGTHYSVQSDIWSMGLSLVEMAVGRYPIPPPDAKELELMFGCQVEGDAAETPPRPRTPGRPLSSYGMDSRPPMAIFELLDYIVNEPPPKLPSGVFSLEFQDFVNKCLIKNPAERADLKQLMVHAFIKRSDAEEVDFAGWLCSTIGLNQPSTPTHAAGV
I only need the number, in %, no unit after it.

CCOc1ccccc1-c1cc2c(N[C@H](CO)c3ccccc3)ncnc2[nH]1    10
OC[C@@H](Nc1ncnc2[nH]c(-c3ccccc3)cc12)c1ccccc1    -8
CN(C)CCNCc1ccc(-c2cc3c(N[C@H](CO)c4ccccc4)ncnc3[nH]2)cc1F    13

q: Entry COc1ccccc1-c1cc2c(N[C@H](CO)c3ccccc3)ncnc2[nH]1 : reported inhibition = ?
a: -4

q: And the next one, OCC[C@@H](Nc1ncnc2[nH]c(-c3ccccc3)cc12)c1ccccc1 ?
a: 5

----------
assay: physchem; settings: phosphate buffered saline, pH 7.4
endpoint_label: solubility kinetic at 2 h

Solved cases below.
COc1cc(CO)ccc1-c1cc2c(N[C@H](CO)c3ccccc3)ncnc2[nH]1    > 100 µM
CS(=O)(=O)Nc1ccc(-c2cc3c(N[C@H](CO)c4ccccc4)ncnc3[nH]2)cc1    > 100 µM
C[C@@H](Nc1ncnc2[nH]c(-c3ccc(NS(C)(=O)=O)cc3)cc12)c1ccccc1    37.5 µM

Moving on to another compound below.
q: Entry CN(C)CCNCc1cc(-c2cc3c(N[C@H](CO)c4ccccc4)ncnc3[nH]2)ccc1F : reported solubility kinetic at 2 h = ?
a: > 100 µM

----------
molecular target: Tyrosine-protein kinase Lyn (Homo sapiens); experiment: Inhibition of recombinant full length human His-tagged LYN-B expressed in baculovirus expression system at 500 nM using Tyr 02 as substrate incubated for 1 hr in presence of ATP at its Km concentration by Z'-LYTE assay relative to contro
Quick rule for you: inhibition at 60% or higher means Condition met, lower means Condition not met.

See these solved cases before continuing.
OCC[C@@H](Nc1ncnc2[nH]c(-c3ccccc3)cc12)c1ccccc1    Condition not met
CCOc1ccccc1-c1cc2c(N[C@H](CO)c3ccccc3)ncnc2[nH]1    Condition not met
COc1ccccc1-c1cc2c(N[C@H](CO)c3ccccc3)ncnc2[nH]1    Condition met

Then there is this compound:
q: inhibition >= 60% for CN(C)CCNCc1ccc(-c2cc3c(N[C@H](CO)c4ccccc4)ncnc3[nH]2)cc1F ?
a: Condition met

Ref: ChEMBL document CHEMBL4715760
